Tested on: SW1271 (Small Cell Lung Carcinoma)
assayExplanation: combination Emax (second highest fraction inhibited in the dose matrix, 72 h); higher = more inhibition; extreme values may be limits of the assay
Measured combination Emax of individual entries

Examples with their reported combination Emax follow.
CC1(C)CCC(CN2CCN(c3ccc(C(=O)NS(=O)(=O)c4ccc(NCC5CCOCC5)c([N+](=O)[O-])c4)c(Oc4cnc5[nH]ccc5c4)c3)CC2)=C(c2ccc(Cl)cc2)C1 [Venetoclax] + CCN(CCO)CCCOc1ccc2c(Nc3cc(CC(=O)Nc4cccc(F)c4)[nH]n3)ncnc2c1 [AZD2811] (first compound max 1 µM, 7x7, partner max 1 µM)	0.174
CS(=O)(=O)CCNCc1ccc(-c2ccc3ncnc(Nc4ccc(OCc5cccc(F)c5)c(Cl)c4)c3c2)o1 [Lapatinib] + C[C@@H](Oc1cc(-c2cnn(C3CCNCC3)c2)cnc1N)c1c(Cl)ccc(F)c1Cl [Crizotinib] (first compound max 10 µM, 7x7, partner max 10 µM)	0.529
CCN(CCO)CCCOc1ccc2c(Nc3cc(CC(=O)Nc4cccc(F)c4)[nH]n3)ncnc2c1 [AZD2811] + C=CCn1c(=O)c2cnc(Nc3ccc(N4CCN(C)CC4)cc3)nc2n1-c1cccc(C(C)(C)O)n1 [AZD1775] (first compound max 1 µM, partner max 1 µM)	0.586
CCc1c2c(nc3ccc(O)cc13)-c1cc3c(c(=O)n1C2)COC(=O)[C@]3(O)CC [SN-38] + CN(C)CCCOc1ccc(-c2ccc3ncc4c(c3c2)n(C2CCOCC2)c(=O)n4C)cn1 [AZD0156] (first compound max 0.3 µM, 7x7, partner max 1 µM)	0.707
CN(C)CCCOc1ccc(-c2ccc3ncc4c(c3c2)n(C2CCOCC2)c(=O)n4C)cn1 [AZD0156] + C=CCn1c(=O)c2cnc(Nc3ccc(N4CCN(C)CC4)cc3)nc2n1-c1cccc(C(C)(C)O)n1 [AZD1775] (first compound max 1 µM, partner max 1 µM)	0.476

Q: Consider the molecule Cc1c2c(nn1C)CSCc1cc(n(C)n1)CSc1cc(c3ccccc3c1)OCCCc1c(C(=O)O)n(C)c3c-2c(Cl)ccc13 [AZD5991] + CC1(C)CCC(CN2CCN(c3ccc(C(=O)NS(=O)(=O)c4ccc(NCC5CCOCC5)c([N+](=O)[O-])c4)c(Oc4cnc5[nH]ccc5c4)c3)CC2)=C(c2ccc(Cl)cc2)C1 [Venetoclax] (first compound max 1 µM, 7x7, partner max 1 µM) and give its recorded combination Emax.
Result: 0.0732

###

Measured combination Emax of individual entries
Test system: NCI-H28 (Mesothelioma)
assayExplanation: combination Emax (second highest fraction inhibited in the dose matrix, 72 h); higher = more inhibition; extreme values may be limits of the assay
# print the numeric value only

Q: Consider the compound COc1nnc2ccc(N3CCC(c4ccc(OCCN5CCN(C)C(=O)[C@H]5C)cc4)CC3)nn12 [AZD5153] + CC1(C)CCC(CN2CCN(c3ccc(C(=O)NS(=O)(=O)c4ccc(NCC5CCOCC5)c([N+](=O)[O-])c4)c(Oc4cnc5[nH]ccc5c4)c3)CC2)=C(c2ccc(Cl)cc2)C1 [Venetoclax] (first compound max 1 µM, 7x7, partner max 1 µM) and give its recorded combination Emax.
Result: 0.487

Q: Consider the compound CN(CCO)CC[C@H](CSc1ccccc1)Nc1ccc(S(=O)(=O)NC(=O)c2ccc(N3CCC([C@@H](O)c4ccccc4-c4ccc(Cl)cc4)CC3)cc2)cc1S(=O)(=O)C(F)(F)F [AZD4320] + C[C@@H]1COCCN1C2=NC(=NC(=C2)C3(CC3)[S@](=N)(=O)C)C4=C5C=CNC5=NC=C4 [AZD6738] (first compound max 1 µM, 7x7, partner max 10 µM) and give its recorded combination Emax.
Result: 0.668

Q: Consider the compound Cn1cnc2c(F)c(Nc3ccc(Br)cc3Cl)c(C(=O)NOCCO)cc21 [Selumetinib] + C[C@@H]1COCCN1C2=NC(=NC(=C2)C3(CC3)[S@](=N)(=O)C)C4=C5C=CNC5=NC=C4 [AZD6738] (first compound max 10 µM, 7x7, partner max 10 µM) and give its recorded combination Emax.
Result: 0.471

Q: Consider the compound O=C(c1cc(Cc2n[nH]c(=O)c3ccccc23)ccc1F)N1CCN(C(=O)C2CC2)CC1 [Olaparib] + COc1nnc2ccc(N3CCC(c4ccc(OCCN5CCN(C)C(=O)[C@H]5C)cc4)CC3)nn12 [AZD5153] (first compound max 10 µM, 7x7, partner max 1 µM) and give its recorded combination Emax.
Result: 0.422

Q: Consider the compound COc1cccc(OCCCN)c1-c1cc(Nc2cnc(C#N)cn2)n[nH]1 [Prexasertib] + Cc1cc2ncnn2cc1Nc1ncc2c(n1)n(C1CCOCC1)c(=O)n2C [AZD7648] (first compound max 1 µM, 7x7, partner max 10 µM) and give its recorded combination Emax.
Result: 0.639

Q: Consider the compound COc1nnc2ccc(N3CCC(c4ccc(OCCN5CCN(C)C(=O)[C@H]5C)cc4)CC3)nn12 [AZD5153] + CCN(CCO)CCCOc1ccc2c(Nc3cc(CC(=O)Nc4cccc(F)c4)[nH]n3)ncnc2c1 [AZD2811] (first compound max 1 µM, 7x7, partner max 1 µM) and give its recorded combination Emax.
Result: 0.518

Q: Consider the compound Cc1c2c(nn1C)CSCc1cc(n(C)n1)CSc1cc(c3ccccc3c1)OCCCc1c(C(=O)O)n(C)c3c-2c(Cl)ccc13 [AZD5991] + CN(C)CCCOc1ccc(-c2ccc3ncc4c(c3c2)n(C2CCOCC2)c(=O)n4C)cn1 [AZD0156] (first compound max 1 µM, 7x7, partner max 1 µM) and give its recorded combination Emax.
Result: 0.194

Q: Consider the compound O=C(c1cc(Cc2n[nH]c(=O)c3ccccc23)ccc1F)N1CCN(C(=O)C2CC2)CC1 [Olaparib] + CC1(C)CCC(CN2CCN(c3ccc(C(=O)NS(=O)(=O)c4ccc(NCC5CCOCC5)c([N+](=O)[O-])c4)c(Oc4cnc5[nH]ccc5c4)c3)CC2)=C(c2ccc(Cl)cc2)C1 [Venetoclax] (first compound max 10 µM, 7x7, partner max 1 µM) and give its recorded combination Emax.
Result: 0.118

Q: Consider the compound CS(=O)(=O)CCNCc1ccc(-c2ccc3ncnc(Nc4ccc(OCc5cccc(F)c5)c(Cl)c4)c3c2)o1 [Lapatinib] + NC1(c2ccc(-c3nc4ccn5c(=O)[nH]nc5c4cc3-c3ccccc3)cc2)CCC1 [MK-2206] (first compound max 10 µM, 7x7, partner max 10 µM) and give its recorded combination Emax.
Result: 0.607

Q: Consider the compound Cc1c2c(nn1C)CSCc1cc(n(C)n1)CSc1cc(c3ccccc3c1)OCCCc1c(C(=O)O)n(C)c3c-2c(Cl)ccc13 [AZD5991] + C=CCn1c(=O)c2cnc(Nc3ccc(N4CCN(C)CC4)cc3)nc2n1-c1cccc(C(C)(C)O)n1 [AZD1775] (first compound max 1 µM, partner max 1 µM) and give its recorded combination Emax.
Result: 0.416

Q: Consider the compound C=CCn1c(=O)c2cnc(Nc3ccc(N4CCN(C)CC4)cc3)nc2n1-c1cccc(C(C)(C)O)n1 [AZD1775] + C[C@@H]1COCCN1C2=NC(=NC(=C2)C3(CC3)[S@](=N)(=O)C)C4=C5C=CNC5=NC=C4 [AZD6738] (first compound max 1 µM, partner max 10 µM) and give its recorded combination Emax.
Result: 0.618

Q: Consider the compound CN(CCO)CC[C@H](CSc1ccccc1)Nc1ccc(S(=O)(=O)NC(=O)c2ccc(N3CCC([C@@H](O)c4ccccc4-c4ccc(Cl)cc4)CC3)cc2)cc1S(=O)(=O)C(F)(F)F [AZD4320] + Cn1cnc2c(F)c(Nc3ccc(Br)cc3Cl)c(C(=O)NOCCO)cc21 [Selumetinib] (first compound max 1 µM, 7x7, partner max 3 µM) and give its recorded combination Emax.
Result: 0.313

Q: Consider the compound CN(CCO)CC[C@H](CSc1ccccc1)Nc1ccc(S(=O)(=O)NC(=O)c2ccc(N3CCC([C@@H](O)c4ccccc4-c4ccc(Cl)cc4)CC3)cc2)cc1S(=O)(=O)C(F)(F)F [AZD4320] + C[C@@H](Nc1cc(F)cc(F)c1)c1cc(C(=O)N(C)C)cc2c(=O)cc(N3CCOCC3)oc12 [AZD8186] (first compound max 1 µM, 7x7, partner max 3 µM) and give its recorded combination Emax.
Result: 0.297

Q: Consider the compound O=C(c1cc(Cc2n[nH]c(=O)c3ccccc23)ccc1F)N1CCN(C(=O)C2CC2)CC1 [Olaparib] + Cc1c2c(nn1C)CSCc1cc(n(C)n1)CSc1cc(c3ccccc3c1)OCCCc1c(C(=O)O)n(C)c3c-2c(Cl)ccc13 [AZD5991] (first compound max 10 µM, 7x7, partner max 1 µM) and give its recorded combination Emax.
Result: 0.118

Origin of the recorded values: the supplement of paper PMC11061612
